Provide the reported inhibition at 100 µg/mL of each item.
Test system: human TNF (Tumor Necrosis Factor) citotoxicity on LM cells (murine fibroblast strain)
testProtocol: In vitro anti-inflammatory activity: inhibition of the citotoxicity induced by human TNF on a murine fibroblast strain (LM cells, MTT)
Assay type: cell-based
conditionLabel: Mus musculus, TNF 5 ng/ml, compound 100 μg/ml, read-out: % of inhibition, TNF (5 ng/ml)
Method: In vitro anti-inflammatory activity In a 96-square bottomed wells plate 15.000 LM cells (Rubin. B. Y. et al., J.Exp. Med., 162:1099, 1985) were inseminated each well (100 μl) in complete RPMI medium (Flow Lab., Hertz. GB). Each well was added with 50 μl of a solution of a compound to be tested at the due concentration, and 50 μl of a solution of TNF at the due concentration. […]
Note to self: number, then unit, no commentary.

Answered cases to consult:
CCCCN(CCCC)CCCOC(=O)OC(C)CCCN(CCCC)CCCC (stereo not shown) [12, B]] :: 62%
CCN(CC)CCCCCCOC(=O)OCCCCCCN(CC)CC [13, E]] :: 21%
CCCCN(CCCC)[C@@H]1CCCC[C@H]1OC(=O)OCC1CCCN(C)C1 (stereo partly shown) [5, C]] :: 30%

Please give inhibition at 100 µg/mL, item by item, for the list that follows.
1. CCCCN(CCCC)CCC(C)OC(=O)OC(C)CCN(CCCC)CCCC (stereo not shown) [8, D]]
2. CCCCN(CCCC)CCCCCOC(=O)OCCCCCN(CCCC)CCCC [14, E]]
3. CCCCN(CCCC)CCCC(C)OC(=O)OC(C)CCCN(CCCC)CCCC (stereo not shown) [10, C]]
4. CN(CCCOC(=O)OCCCN(C)Cc1ccccc1)Cc1ccccc1 [16, D]]

["82%", "59%", "95%", "21%"]
